# Test system: OVCAR8
# ASSAY NAME: drug sensitivity score (DSS2) on cancer cell count; higher = more sensitive; extreme values may be limits of the assay
# COND: co-cultured fibroblast: WI38; 72 h
REPORTED METRIC: drug sensitivity score (DSS)
Numeric only. Scale: DSS

MOLECULE	READING
C[C@@H]1C=C2C(=O)O[C@@H]3CC[C@H](C1)[C@]23O [Galiellalactone]	3.9

Could you tell me which drug sensitivity score is on file for C/C(=C\c1csc(C)n1)[C@@H]1C[C@@H]2O[C@]2(C)CCC[C@H](C)[C@H](O)[C@@H](C)C(=O)C(C)(C)[C@@H](O)CC(=O)N1 [Ixabepilone] ? 5.6

Could you tell me which drug sensitivity score is on file for CC(C)(C)c1cnc(CSc2cnc(NC(=O)C3CCNCC3)s2)o1 [SNS-032] ? 21

Could you tell me which drug sensitivity score is on file for Nc1ccn([C@@H]2O[C@H](CO)[C@@H](O)[C@@H]2O)c(=O)n1 [Cytarabine] ? 18.3

Could you tell me which drug sensitivity score is on file for Nc1nc2[nH]cc(CCc3ccc(C(=O)N[C@@H](CCC(=O)O)C(=O)O)cc3)c2c(=O)[nH]1 [Pemetrexed] ? 19.3

Could you tell me which drug sensitivity score is on file for Nc1cc(F)ccc1NC(=O)/C=C/c1cnn(C/C=C/c2ccccc2)c1 [RGFP966] ? 0.6

Could you tell me which drug sensitivity score is on file for Cn1c(Nc2ccc(C(F)(F)F)cc2)nc2cc(Oc3ccnc(-c4ncc(C(F)(F)F)[nH]4)c3)ccc21 [NVP-RAF265] ? 0

Could you tell me which drug sensitivity score is on file for CO[C@H]1C[C@@H]2CC[C@@H](C)[C@@](O)(O2)C(=O)C(=O)N2CCCC[C@H]2C(=O)O[C@H]([C@H](C)C[C@@H]2CC[C@@H](OC(=O)C(C)(CO)CO)[C@H](OC)C2)CC(=O)[C@H](C)/C=C(\C)[C@@H](O)[C@@H](OC)C(=O)[C@H](C)C[C@H](C)/C=C/C=C/C=C/1C [Temsirolimus] ? 0

Could you tell me which drug sensitivity score is on file for CC1=C(/C=C/C(C)=C/C=C/C(C)=C/C(=O)O)C(C)(C)CCC1 [Tretinoin] ? 0

Could you tell me which drug sensitivity score is on file for c1cc(CN2CCCNCCNCCCNCC2)ccc1CN1CCCNCCNCCCNCC1 [Plerixafor] ? 0

Could you tell me which drug sensitivity score is on file for C=C1C[C@@H]2[C@H](CC[C@]3(C)C(=O)CC[C@@H]23)[C@@]2(C)C=CC(=O)C=C12 [Exemestane] ? 0
